B1: TPR t1 (parent)
chain: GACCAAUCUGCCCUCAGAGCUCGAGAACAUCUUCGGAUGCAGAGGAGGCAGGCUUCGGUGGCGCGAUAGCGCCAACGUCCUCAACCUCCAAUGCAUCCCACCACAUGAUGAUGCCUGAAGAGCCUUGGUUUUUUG

Variants of: B1
ASSAY: polymerase ribozyme fitness, log enrichment relative to wild type (log ratio); higher = more active; in vitro selection for triplet polymerase activity
polymerase ribozyme fitness (log ratio) by entry:

Below, each entry is followed by its recorded polymerase ribozyme fitness (log ratio) result.
- CHANGES: "C8G A18U U21A C73U G93A"
  polymerase ribozyme fitness (log ratio): -3.79
- CHANGES: "A43C G52U"
  polymerase ribozyme fitness (log ratio): -3.56
- CHANGES: "C15U G17C C72A A121C"
  polymerase ribozyme fitness (log ratio): -1.65
- CHANGES: "A100C A121G"
  polymerase ribozyme fitness (log ratio): 1.39

Ask: Please report the measured polymerase ribozyme fitness (log ratio) for C76G C101A
Result: -3.2

Ask: Please report the measured polymerase ribozyme fitness (log ratio) for G71U C104A
Result: -1.81

Ask: Please report the measured polymerase ribozyme fitness (log ratio) for G10U G35U A66U G69U G93A
Result: -5.9

Ask: Please report the measured polymerase ribozyme fitness (log ratio) for C13G G17C U112G U116G
Result: -4.51

Ask: Please report the measured polymerase ribozyme fitness (log ratio) for A41U G47C A75U
Result: -3.07

Ask: Please report the measured polymerase ribozyme fitness (log ratio) for C13G A16U C49A G63A
Result: -3.65
